Values were extracted from PubChem BioAssay (NCI).

- Test system: HS 578T breast
- assay.text: NCI-60 one-dose screen, 48 h (100 = growth as untreated, 0 = no growth, -100 = all killed)
- conditions.used: 10 µM unless noted
This is part of a sample that, as a whole, favours compounds with a hit. Of some 83,000 tested, about 20% had one in any assay.
parameter.measured: growth (%)
Numbers only here, please. The scale is %.

Record `O=C(CCN1CCCC1)Nc1ccc2c(NCCCc3ccccc3)c3ccccc3nc2c1` , field growth: 27.4

Record `COc1ccc2c(c1)oc1c(C)c3c(c(C)c12)C(=O)N(N)C3=O` , field growth: 19.1

Record `CCOC(=O)/C(C#N)=C1/NNC(=Nc2cccnc2)S1` , field growth: 96.7

Record `O=C(/C=C(O)/C=C/c1ccc(SC(F)(F)F)cc1)/C=C/c1ccc(SC(F)(F)F)cc1` , field growth: 98.2

Record `Brc1ccc(Nc2csc(-c3ccccn3)n2)cc1` , field growth: 92.4

Record `COc1cc(C2=C(c3cn(C)c4ccccc34)COC2=O)cc(OC)c1OC` , field growth: -6.29

Record `Cn1c2ccccc2c2c3c(c4c5ccccc5n(C)c4c21)C(=O)OC3` , field growth: 97.4

Record `COc1cc2oc(-c3cccc(C(=O)Nc4ccc(Br)cc4)c3)cc(=O)c2c(OC)c1OC` , field growth: 65.2
